assay: chemical genetic growth profiling, strain panel (AID 1159580);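 also: tested at 20 µM; growth read once vehicle control cultures reached saturation at 30 °C; 1 = growth at the plate median or of vehicle wells; lower values mean less growth of the strain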; conditions: S. cerevisiae deletion strains, growth OD, locus YDL028C, strain MPS1, stronger effect = lower value
Among all 5,500 compounds or so, about 2,000 (36%) were called active. About 18% were inconclusive and are not listed. The list shows a part of the results.
readout-kind: normalized growth

1) COc1cc(CC/C(C)=N/O)ccc1OCc1ccc(Cl)cc1Cl | 0.978
2) O=C(CCn1c(=O)oc2ccccc21)Sc1ccc(C(F)(F)F)cc1 | 0.925
3) CS(=O)(=O)/C(C#N)=C/c1ccccc1OCc1c(Cl)cccc1Cl | 0.956
4) O=C(Nc1ccc(Cl)cc1)O/N=C\c1ccn(-c2ccccc2)n1 | 0.955
5) Cc1onc(-c2ccccc2)c1C(=O)Sc1ccc(C(F)(F)F)cn1 | 0.958
6) CSC(=NNc1ccccc1)NC(=O)c1c(Cl)cccc1Cl | 0.975
7) COc1ccc(CC2CCC(=NOC(=O)c3ccc(C(C)(C)C)cc3)CC2)cc1 (stereo not drawn) | 0.984
8) S=C(Nc1cc(Cl)c(Cl)cc1Cl)Nc1ccccc1Br | 0.953
9) O=C(CCn1c(=O)oc2ccccc21)Sc1ccc(Cl)cc1Cl | 0.884
10) O=[N+]([O-])c1ccc(-c2csc(Nc3ccncc3)n2)cc1 | 0.998
11) CS(=O)(=O)c1sc(C(=O)Sc2ccc(Cl)cc2)c2c1C=CCC2 | 0.88
12) O=C(Nc1cccc2ccccc12)c1ccccc1O | 0.816
13) COc1cc(CC/C(C)=N\O)ccc1OCc1ccc(Cl)c(Cl)c1 | 0.959
14) O=S(=O)(Nc1ccc(Oc2ccc(OC(F)(F)F)cc2)cc1)c1cccc(Cl)c1 | 0.982
15) COc1ccc(CC2CCC(=NOC(=O)c3c(Cl)cccc3Cl)CC2)cc1 (stereo not drawn) | 1.04
16) Cc1nn(Cc2nnc(SCc3cccc(C(F)(F)F)c3)o2)c(C)c1Br | 0.973
17) CC1(C)c2ccccc2N(CCC(N)=O)C12C=Cc1c(ccc3ccccc13)O2 (stereo not drawn) | 0.969
18) Cc1ccc(N2C(=O)CSC2c2ccc(Cl)c(Cl)c2)cc1Cl (stereo not drawn) | 0.977
19) O=C(NNc1ccc(Cl)cc1)c1ccc(F)cc1F | 0.959
20) CC1C/C(=N/Nc2ccc(Br)cc2)c2cc(Cl)ccc2S1(=O)=O (stereo not drawn) | 1
21) N#Cc1ccc(NC(=O)Nc2cccc3ccccc23)cc1 | 0.971
22) O=C1CSC(c2ccc(C(F)(F)F)cc2)N1c1ccc(C(F)(F)F)cc1 (stereo not drawn) | 0.999
23) Oc1ccc(N=Nc2ccccn2)c(O)c1 | 0.0969
